These data points were gathered from patent US20230114728A1.

System: N. gonorrhoeae ATCC 49226
Assay: Liquid broth MIC in Fastidious broth
Assay type: cell-based
Conditions: Neisseria gonorrhoeae, ATCC49226; N. gonorrhoeae strain ATCC 49226; Fastidious broth; read-out: Minimum Inhibitory Concentration, N. gonorrhoeae ATCC 49226
Procedure: Example V: In Vitro Antibacterial Assays for N. gonorrhoeae Strains Additional antibacterial testing of the series was performed in 8 reference strains of N. gonorrhoeae (ATCC 49226, FA1090, WHO G, WHO L, WHO K, H041, WHO Z, and WHO Q). ATCC 49226, FA1090, WHO G, and WHO L produce wild type or wild-type like PBP2. […] After the dilution plates were set up, direct suspensions were then diluted in a cuvette containing sterile saline and the optical density was measured at 600 nm. […]
Property measured: MIC

Q: Given the entry N=C(N)NCCN1CCN(C(=O)NC(C(=O)N[C@H]2Cc3ccc(F)c(C(=O)O)c3OB2O)c2ccc(C(=O)O)c(F)c2)C(=O)C1=O (stereo partly drawn) , report its measured MIC.
Ans: 16 to 32 µg/mL

Q: Can you check NC1(CN2CCN(C(=O)N[C@@H](C(=O)N[C@H]3Cc4ccc(F)c(C(=O)O)c4OB3O)c3cc(F)c(O)c(O)c3Cl)C(=O)C2=O)CC1 (single isomer, unassigned) next?
Ans: > 64 µg/mL

Q: Also CCN1CCN(C(=O)NC(C(=O)N[C@H]2Cc3cccc(C(=O)O)c3OB2O)c2cccc(C(=O)O)c2)C(=O)C1=O (stereo partly drawn) , if possible.
Ans: 4 to 8 µg/mL

Q: // repeat for `NCCN1CCN(C(=O)N[C@@H](C(=O)N[C@H]2Cc3cccc(C(=O)O)c3OB2O)c2cc(Cl)c(O)cc2Cl)C(=O)C1=O` and report
Ans: > 64 µg/mL

Q: Another compound: NCCN1CCN(C(=O)NC(C(=O)N[C@H]2Cc3cccc(C(=O)O)c3OB2O)c2cc(Cl)c(O)cc2F)C(=O)C1=O (stereo partly drawn)
Ans: 16 to 32 µg/mL

Q: Also check NCCCN1CCN(C(=O)NC(C(=O)N[C@H]2Cc3cccc(C(=O)O)c3OB2O)c2ccc(C(N)=O)c(O)c2)C(=O)C1=O (stereo partly drawn)
Ans: 4 to 8 µg/mL

Q: Let us now turn to CCN1CCN(C(=O)NC(C(=O)N[C@H]2Cc3cccc(C(=O)O)c3OB2O)c2ccc(O)c(Cl)c2F)C(=O)C1=O (stereo partly drawn)
Ans: 4 to 8 µg/mL

Q: Thanks! And NCCN1CCN(C(=O)N[C@H](C(=O)N[C@H]2Cc3cccc(C(=O)O)c3OB2O)c2cc(Cl)c(O)c(Cl)c2)C(=O)C1=O (single isomer, unassigned) ?
Ans: > 64 µg/mL

Q: What about O=C(O)c1cccc2c1OB(O)[C@@H](NC(=O)C(NC(=O)N1CCN(CC3CNC3)C(=O)C1=O)c1c(F)cc(O)cc1F)C2 (stereo partly drawn) ?
Ans: > 64 µg/mL

Q: And what about the compound NCCN1CCN(C(=O)N[C@H](C(=O)N[C@H]2Cc3cccc(C(=O)O)c3OB2O)c2ccc(C(=O)O)cc2)C(=O)C1=O (single isomer, unassigned) ?
Ans: 16 to 32 µg/mL

Q: Let us now turn to O=C(NC(C(=O)N[C@H]1Cc2ccc(F)c(C(=O)O)c2OB1O)c1ncc(O)cc1F)c1ccnc(F)c1 (stereo partly drawn)
Ans: > 64 µg/mL

Q: # iterate: CCN1CCN(C(=O)NC(C(=O)N[C@H]2Cc3cccc(C(=O)O)c3OB2O)c2cc(F)c(O)c(F)c2)C(=O)C1=O (stereo partly drawn)
Ans: 4 to 8 µg/mL

Q: For NCCCN1CCN(C(=O)N[C@@H](C(=O)N[C@H]2Cc3ccc(F)c(C(=O)O)c3OB2O)c2c(F)cc(O)c(O)c2F)C(=O)C1=O (single isomer, unassigned) then?
Ans: 16 to 32 µg/mL

Q: Lookup CCN1CCN(C(=O)NC(C(=O)N[C@H]2Cc3cccc(C(=O)O)c3OB2O)c2ccc(C(=O)O)c(O)c2)C(=O)C1=O (stereo partly drawn)
Ans: 4 to 8 µg/mL

Q: Again, but for O=C(O)c1c(F)ccc2c1OB(O)[C@@H](NC(=O)[C@H](NC(=O)N1CCNC1=O)c1c(F)cc(O)c(O)c1Cl)C2 (single isomer, unassigned)
Ans: 16 to 32 µg/mL

Q: Can you handle NCCN1CCN(C(=O)NC(C(=O)N[C@H]2Cc3cccc(C(=O)O)c3OB2O)c2cc(F)c(O)cc2F)C(=O)C1=O (stereo partly drawn) next?
Ans: > 64 µg/mL

Q: Note, next up: CCN1CCN(C(=O)NC(C(=O)N[C@H]2Cc3cccc(C(=O)O)c3OB2O)c2cccc(NS(N)(=O)=O)c2)C(=O)C1=O (stereo partly drawn)
Ans: 16 to 32 µg/mL

Q: What do we get for O=C(Nc1ccc(O)c(O)c1Cl)NC(C(=O)N[C@H]1Cc2ccc(F)c(C(=O)O)c2OB1O)c1ncc(O)cc1F (stereo partly drawn) ?
Ans: > 64 µg/mL

Q: Further, for NC1(CN2CCN(C(=O)N[C@@H](C(=O)N[C@H]3Cc4ccc(F)c(C(=O)O)c4OB3O)c3c(F)cc(O)c(O)c3Cl)C(=O)C2=O)CC1 (single isomer, unassigned) ?
Ans: > 64 µg/mL

Q: Next compound: CCN1CCN(C(=O)NC(C(=O)N[C@H]2Cc3cccc(C(=O)O)c3OB2O)c2cccc(O)c2)C(=O)C1=O (stereo partly drawn)
Ans: 4 to 8 µg/mL

Q: What do you have for NCCN1CCN(C(=O)N[C@H](C(=O)N[C@H]2Cc3cccc(C(=O)O)c3OB2O)c2ccc(O)c(F)c2F)C(=O)C1=O (single isomer, unassigned) ?
Ans: > 64 µg/mL

Q: Lookup CCN1CCN(C(=O)NC(C(=O)N[C@H]2Cc3ccc(OCCN)c(C(=O)O)c3OB2O)c2ccccc2)C(=O)C1=O (stereo partly drawn)
Ans: > 64 µg/mL

Q: Now try NCCN1CCN(C(=O)N[C@@H](C(=O)N[C@H]2Cc3cccc(C(=O)O)c3OB2O)c2cc(Cl)c(O)c(Cl)c2)C(=O)C1=O (single isomer, unassigned) .
Ans: 16 to 32 µg/mL

Q: Next entry: CCN1CCN(C(=O)N[C@H](C(=O)N[C@H]2Cc3ccc(F)c(C(=O)O)c3OB2O)c2c(F)cc(O)c(O)c2Cl)C(=O)C1=O (single isomer, unassigned)
Ans: > 64 µg/mL
